- target under test: ERK5 (Homo sapiens)
- Sequence (Q13164 whole entry): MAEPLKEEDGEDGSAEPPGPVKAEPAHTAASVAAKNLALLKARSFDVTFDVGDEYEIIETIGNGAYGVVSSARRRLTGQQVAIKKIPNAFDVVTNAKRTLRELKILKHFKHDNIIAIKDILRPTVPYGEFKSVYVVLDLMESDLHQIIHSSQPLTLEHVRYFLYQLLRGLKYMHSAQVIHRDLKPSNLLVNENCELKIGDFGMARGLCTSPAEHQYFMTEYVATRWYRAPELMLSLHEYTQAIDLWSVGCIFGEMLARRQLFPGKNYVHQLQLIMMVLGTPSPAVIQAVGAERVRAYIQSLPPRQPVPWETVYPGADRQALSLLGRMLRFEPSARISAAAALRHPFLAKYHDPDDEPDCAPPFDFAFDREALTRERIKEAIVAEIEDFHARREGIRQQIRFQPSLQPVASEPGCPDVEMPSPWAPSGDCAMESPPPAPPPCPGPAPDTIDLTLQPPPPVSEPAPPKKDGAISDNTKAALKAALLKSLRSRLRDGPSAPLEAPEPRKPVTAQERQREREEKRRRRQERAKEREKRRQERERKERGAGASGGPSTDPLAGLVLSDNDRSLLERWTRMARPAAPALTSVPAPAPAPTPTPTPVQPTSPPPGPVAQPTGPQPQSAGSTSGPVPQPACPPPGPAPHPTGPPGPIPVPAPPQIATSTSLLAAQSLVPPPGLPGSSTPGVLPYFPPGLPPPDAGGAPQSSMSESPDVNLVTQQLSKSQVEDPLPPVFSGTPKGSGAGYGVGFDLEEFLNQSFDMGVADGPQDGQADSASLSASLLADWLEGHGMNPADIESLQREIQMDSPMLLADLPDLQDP
assay readout: IC50 (nM)
Provide only the numeric value, understood in nM.

Query block: // query IC50 value for entry CN(C)Cc1cccc(Nc2ncc(Cl)c(-c3csc(C(=O)NN4CCOCC4)c3)n2)c1
Result block: 59.7

---

- method notes: Caco-2 bidirectional transport
- Type: in vitro ADME
- condition notes: human; Caco-2, 120 min; read-out: AP→BL Papp
assay readout: Papp A→B at 120 min (×10⁻⁶ cm/s)
State just the number; it will be interpreted in ×10⁻⁶ cm/s.

Query block: # get_value(readout='Papp A→B at 120 min', item= CN(C)Cc1cccc(Nc2ncc(Cl)c(-c3csc(C(=O)NN4CCOCC4)c3)n2)c1 )
Result block: 2.23

---

- method notes: Pharmacokinetic study
- Format: in vivo
- condition notes: rat, plasma, iv; SD rats, i.v. 1 mg/kg
assay readout: Cmax (µg/mL)
# value in µg/mL; strip the unit string

Query block: Endpoint output: Cmax of CN(C)Cc1cccc(Nc2ncc(Cl)c(-c3csc(C(=O)NN4CCOCC4)c3)n2)c1 [SKLB-D18] . Value?
Result block: 0.0587

---

Provide the recorded Enzyme inhibitory activity (500 nM, %) ERK1 for the entries that follow.
- target under test: ERK1 (Homo sapiens, UniProt P27361)
- Sequence (P27361 whole entry): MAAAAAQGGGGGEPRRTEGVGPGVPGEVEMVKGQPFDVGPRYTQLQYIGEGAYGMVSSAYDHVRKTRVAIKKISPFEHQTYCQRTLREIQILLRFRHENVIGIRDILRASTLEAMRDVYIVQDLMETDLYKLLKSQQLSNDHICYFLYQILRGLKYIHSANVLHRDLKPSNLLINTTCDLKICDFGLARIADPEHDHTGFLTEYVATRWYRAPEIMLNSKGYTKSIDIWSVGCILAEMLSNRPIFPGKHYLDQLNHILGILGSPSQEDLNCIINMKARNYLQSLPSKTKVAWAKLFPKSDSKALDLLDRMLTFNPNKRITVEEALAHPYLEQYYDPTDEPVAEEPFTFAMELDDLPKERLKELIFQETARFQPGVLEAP
- method notes: ADP-Glo kinase assay
- Assay type: biochemical
- condition notes: 500 nM
Answer in %, number only, no unit symbol.

Query block: Give the measured Enzyme inhibitory activity (500 nM, %) ERK1 of CSc1ccc(NC(=O)c2cc(-c3nc(Nc4ccnn4C)ncc3Cl)cs2)cc1 .
Result block: 95.98

Query block: Sample CN(C)Cc1cccc(Nc2ncc(Cl)c(-c3csc(C(=O)NN4CCN(C)CC4)c3)n2)c1 [18n] — what was its Enzyme inhibitory activity (500 nM, %) ERK1?
Result block: 90.27

Query block: Looking for the measured Enzyme inhibitory activity (500 nM, %) ERK1 of COc1ccc(NC(=O)c2cc(-c3nc(Nc4ccccc4)ncc3Cl)cs2)cc1 , can you help?
Result block: 77.32

Query block: Entry CN1CCN(C(=O)c2cc(-c3nc(Nc4ccnn4C)ncc3Cl)cs2)CC1 has what Enzyme inhibitory activity (500 nM, %) ERK1?
Result block: 40.45

Query block: So what does the record say about Enzyme inhibitory activity (500 nM, %) ERK1 for Cn1nccc1Nc1ncc(Cl)c(-c2csc(C(=O)NN3CCOCC3)c2)n1 ?
Result block: 97.82

---

Would you mind telling me the reported Anti-proliferative activity (10 μM, %) MDA-MB-468 of each entry?
- Test system: MDA-MB-468 cells
- method notes: MTT cell viability assay
- Type: cell-based
- condition notes: 10 μM
Could you give me the number in %? Just the number is fine.

Query block: Query: Anti-proliferative activity (10 μM, %) MDA-MB-468; subject: COc1ccc(NC(=O)c2cc(-c3nc(Nc4ccn(C)n4)ncc3Cl)cs2)cc1
Result block: 8.70

Query block: Fill in the blank: the reported Anti-proliferative activity (10 μM, %) MDA-MB-468 of Cn1nccc1Nc1ncc(Cl)c(-c2csc(C(=O)Nc3cccc(F)c3)c2)n1 is ____.
Result block: 10.11

Query block: If you can, please state the reported Anti-proliferative activity (10 μM, %) MDA-MB-468 value of CCc1cccc(NC(=O)c2cc(-c3nc(Nc4ccnn4C)ncc3Cl)cs2)c1 .
Result block: 30.21

Query block: Anti-proliferative activity (10 μM, %) MDA-MB-468 lookup needed for CC(C)Oc1ccc(NC(=O)c2cc(-c3nc(Nc4ccnn4C)ncc3Cl)cs2)cc1 , thanks.
Result block: 4.62

Query block: Given the compound Cn1nccc1Nc1ncc(Cl)c(-c2csc(C(=O)Nc3cccc(C(F)(F)F)c3)c2)n1 , what is its reported Anti-proliferative activity (10 μM, %) MDA-MB-468?
Result block: 30.41

Query block: # input compound: COc1ccc(NC(=O)c2cc(-c3nc(Nc4c(C)nn(C)c4C)ncc3Cl)cs2)cc1 ; wanted: its Anti-proliferative activity (10 μM, %) MDA-MB-468
Result block: 24.33

Query block: Find the recorded Anti-proliferative activity (10 μM, %) MDA-MB-468 belonging to Cn1nccc1Nc1ncc(Cl)c(-c2csc(C(=O)Nc3cccc(N)c3)c2)n1 and report it.
Result block: 28.42

Query block: Fill in: Anti-proliferative activity (10 μM, %) MDA-MB-468 of CN1CCN(NC(=O)c2cc(-c3nc(Nc4ccnn4C)ncc3Cl)cs2)CC1 is ___
Result block: 10.78

Query block: Data request, read-out Anti-proliferative activity (10 μM, %) MDA-MB-468, for Cn1nccc1Nc1ncc(Cl)c(-c2csc(C(=O)Nc3cccc(Br)c3)c2)n1
Result block: 23.35

Query block: Which measured Anti-proliferative activity (10 μM, %) MDA-MB-468 value corresponds to Cc1cc(NC(=O)c2cc(-c3nc(Nc4ccnn4C)ncc3Cl)cs2)ccn1 ?
Result block: 20.23

Query block: Would you mind telling me what Anti-proliferative activity (10 μM, %) MDA-MB-468 value was observed for CN(C)Cc1cccc(Nc2ncc(Cl)c(-c3csc(C(=O)Nc4ccnn4C)c3)n2)c1 [18k] ?
Result block: -3.93

Query block: // returns reported Anti-proliferative activity (10 μM, %) MDA-MB-468 for input Cn1nccc1Nc1ncc(Cl)c(-c2csc(C(=O)Nc3ccccc3)c2)n1
Result block: -12.07

Query block: Fill in: Anti-proliferative activity (10 μM, %) MDA-MB-468 of Cn1nccc1Nc1ncc(Cl)c(-c2csc(C(=O)Nc3cccc(Cl)c3)c2)n1 is ___
Result block: 23.41

Query block: Reported Anti-proliferative activity (10 μM, %) MDA-MB-468 for CC(C)N1CCN(C(=O)c2cc(-c3nc(Nc4ccnn4C)ncc3Cl)cs2)CC1 : what is it?
Result block: 3.51

Query block: Would you mind telling me what Anti-proliferative activity (10 μM, %) MDA-MB-468 value was observed for CN(C)Cc1cccc(Nc2ncc(Cl)c(-c3csc(C(=O)NN4CCOCC4)c3)n2)c1 ?
Result block: 92.18

Query block: Reported Anti-proliferative activity (10 μM, %) MDA-MB-468 for CSc1ccc(NC(=O)c2cc(-c3nc(Nc4ccnn4C)ncc3Cl)cs2)cc1 : what is it?
Result block: 18.49

Query block: Which measured Anti-proliferative activity (10 μM, %) MDA-MB-468 value corresponds to Cc1cc(NC(=O)c2cc(-c3nc(Nc4cccc(CN(C)C)c4)ncc3Cl)cs2)ccn1 [18j] ?
Result block: 59.17

Query block: Requested read-out: Anti-proliferative activity (10 μM, %) MDA-MB-468. Entry: COc1ccc(NC(=O)c2cc(-c3nc(Nc4ccccc4)ncc3Cl)cs2)cc1
Result block: 25.10

Query block: Entry under review: Cn1nccc1Nc1ncc(Cl)c(-c2csc(C(=O)NN3CCOCC3)c2)n1 . Reported Anti-proliferative activity (10 μM, %) MDA-MB-468?
Result block: 0.70

These entries and their values trace back to paper PMC11842588.
